- Tested on: Raji lymphoma cells
- Protocol Notes: Cytotoxicity study, MTT assay, Raji cells
- Format: cell-based, human
- Run Parameters: Homo sapiens, 96 hours, read-out: IC50 at 72* or 96 hours
Property Name: IC50 (µM)
Number only, in µM; omit the unit.

Determine from records and report IC50 for NC1=NC(=O)N2CC12 (racemic) [imexon, reference compound]
50
